Record form. Attribute: EC50. Fill in for each entry.
biological target: hGIPR (Homo sapiens, UniProt P48546); assay: Functional cAMP activity in the presence of 1% HSA; assay type: cell-based; conditions: read-out: cAMP Rel EC50, hGIPR
Sequence (P48546 22-466): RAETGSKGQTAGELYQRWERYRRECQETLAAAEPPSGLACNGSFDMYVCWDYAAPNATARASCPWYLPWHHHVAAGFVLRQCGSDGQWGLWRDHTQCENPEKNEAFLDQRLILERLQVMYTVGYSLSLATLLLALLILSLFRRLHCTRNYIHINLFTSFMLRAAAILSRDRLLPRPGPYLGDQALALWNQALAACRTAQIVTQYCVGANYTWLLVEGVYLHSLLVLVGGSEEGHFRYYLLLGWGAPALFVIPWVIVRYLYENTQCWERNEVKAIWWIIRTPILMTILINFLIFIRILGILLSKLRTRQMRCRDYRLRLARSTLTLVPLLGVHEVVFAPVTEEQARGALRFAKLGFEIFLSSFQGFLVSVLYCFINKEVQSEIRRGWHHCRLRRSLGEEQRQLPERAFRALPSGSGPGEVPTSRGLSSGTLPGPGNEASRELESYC
Starred links: 1 amine or outer side, 2 acyl side, 3 side chain; linkers in the order of their positions; H or OH if unused. Non-standard residues stand in square brackets, D forms with d. Groups on a side chain read outwards from the residue. No end group written: not given here. *: point of attachment. C20 diacid = O=C(O)CCCCCCCCCCCCCCCCCCC(=O)*; C18 diacid = O=C(O)CCCCCCCCCCCCCCCCC(=O)*; αMePhe(2-F) = C[C@](N)(Cc1ccccc1F)C(=O)O; γGlu = O=C(O)[C@H](CCC(=O)[*:2])N[*:1]; αMe4Pal = C[C@](N)(Cc1ccncc1)C(=O)O; αMeY = C[C@](N)(Cc1ccc(O)cc1)C(=O)O; 4Pal = N[C@@H](Cc1ccncc1)C(=O)O; αMeL = CC(C)C[C@](C)(N)C(=O)O; Orn = NCCC[C@H](N)C(=O)O; AEEA = NCCOCCOCC(=O)O; Aib = CC(C)(N)C(=O)O
A complete answer gives the number followed by the unit.

Recorded EC50, per entry:
1) H-Y[Aib]QGTFTSDYSI[αMeL]LDKQAAK([AEEA-AEEA-γGlu-C20 diacid])QFVEWLIA[Aib]GPSSGEPPPGTG-NH2 [Example 336] = 64.4 nM
2) H-Y[Aib]QGTFTSD[4Pal]SK[αMeL]LDKK([AEEA-γGlu-C18 diacid])AQ[Aib]AFIEYLIE[Aib]GESSGAPPPSGS-NH2 [Example 280] = 15.6 nM
3) H-Y[Aib]QGTFTSDFS[Orn][αMeL]LDKK([AEEA-γGlu-C18 diacid])AQ[Aib]AFIEYLLEGGPSSGAPPPGGSE-NH2 [Example 65] = 30.2 nM
4) H-Y[Aib]QGTFTSDFS[Orn][αMeL]LDKK([AEEA-γGlu-C20 diacid])AQ[Aib]AFIEYLLAGGTSSGEPPPSGE-NH2 [Example 106] = 91 nM
5) Y[Aib]QGT[αMePhe(2-F)]TSD[4Pal]SI[αMeL]LD[Orn]K([AEEA-γGlu-C18 diacid])AQ[αMe4Pal]EFI[dE][αMeY]LIEGGPSSGEPPPSGS-NH2 [Example 644] = 0.601 nM

Attention now turns to another entry.
State the recorded EC50 for this entry: H-Y[Aib]QGTFTSDFS[Orn][αMeL]LDKK([AEEA-γGlu-C18 diacid])AQ[Aib]AFIEYLLAGGPSSGEPPPEGS-NH2 [Example 152] 23.2 nM

----------
biological target: hGIPR (Homo sapiens); assay: Functional cAMP activation in the presence of 0.1% casein (no HSA); assay type: cell-based; details: read-out: Relative cAMP EC50, hGIPR;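 note: intracellular cAMP rise after 30 min at 37 °C read by HTRF against a standard curve, scaled between buffer alone (0%) and top control ligand concentration (100%), four-parameter fit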
Starred links: 1 amine or outer side, 2 acyl side, 3 side chain; linkers in the order of their positions; H or OH if unused. Non-standard residues stand in square brackets, D forms with d. Groups on a side chain read outwards from the residue. *: point of attachment. C18 diacid = O=C(O)CCCCCCCCCCCCCCCCC(=O)*; αMePhe(2-F) = C[C@](N)(Cc1ccccc1F)C(=O)O; γGlu = O=C(O)[C@H](CCC(=O)[*:2])N[*:1]; αMe4Pal = C[C@](N)(Cc1ccncc1)C(=O)O; αMeY = C[C@](N)(Cc1ccc(O)cc1)C(=O)O; 4Pal = N[C@@H](Cc1ccncc1)C(=O)O; αMeL = CC(C)C[C@](C)(N)C(=O)O; αMeS = C[C@](N)(CO)C(=O)O; Orn = NCCC[C@H](N)C(=O)O; AEEA = NCCOCCOCC(=O)O; Aib = CC(C)(N)C(=O)O
measurement.label: EC50 (nM)
Give bare numbers, in nM.

1) H-Y[Aib]QGT[αMePhe(2-F)]TSD[4Pal][αMeS]ILLD[Orn]K([γGlu-γGlu-C18 diacid])AQ[Aib][Orn]FI[dE]YLIEGGPSSGEPPPSGTEE-NH2 [Example 576] = 0.0723
2) H-Y[Aib]QGT[αMePhe(2-F)]TSD[4Pal]SILLDKK([γGlu-γGlu-C18 diacid])AQ[Aib]AFIEYLQEGGPSSGAPPPSGTE-NH2 [Example 553] = 0.0371
3) H-Y[Aib]QGT[αMePhe(2-F)]TSD[4Pal][αMeS]I[αMeL]LD[Orn]K([AEEA-AEEA-γGlu-C18 diacid])AQ[Aib][Orn]FIEYLIEGGPSSGAPEPSEG-NH2 [Example 492] = 0.0119
4) H-Y[Aib]QGT[αMePhe(2-F)]TSD[4Pal]SI[αMeL]LD[Orn]K([γGlu-γGlu-C18 diacid])AQ[αMe4Pal]EFI[dE][αMeY]LQEGGPSSGAPPPSGS-NH2 [Example 647] = 0.0177

API: the following record is the query input.
Dear colleague, I am looking for the recorded EC50 of the following substance: H-Y[Aib]QGT[αMePhe(2-F)]TSD[4Pal][αMeS]I[αMeL]LD[Orn]K([AEEA-γGlu-C18 diacid])AQ[αMe4Pal]EFI[dE][αMeY]LIEGGPSSGEPPPSGTGE-NH2 [Example 711] 0.00861
